Each recorded value in this set is attributed to paper PMC10759180.

# TARGET SYSTEM: urease (Canavalia ensiformis)
# Sequence (P07374 whole entry, looked up): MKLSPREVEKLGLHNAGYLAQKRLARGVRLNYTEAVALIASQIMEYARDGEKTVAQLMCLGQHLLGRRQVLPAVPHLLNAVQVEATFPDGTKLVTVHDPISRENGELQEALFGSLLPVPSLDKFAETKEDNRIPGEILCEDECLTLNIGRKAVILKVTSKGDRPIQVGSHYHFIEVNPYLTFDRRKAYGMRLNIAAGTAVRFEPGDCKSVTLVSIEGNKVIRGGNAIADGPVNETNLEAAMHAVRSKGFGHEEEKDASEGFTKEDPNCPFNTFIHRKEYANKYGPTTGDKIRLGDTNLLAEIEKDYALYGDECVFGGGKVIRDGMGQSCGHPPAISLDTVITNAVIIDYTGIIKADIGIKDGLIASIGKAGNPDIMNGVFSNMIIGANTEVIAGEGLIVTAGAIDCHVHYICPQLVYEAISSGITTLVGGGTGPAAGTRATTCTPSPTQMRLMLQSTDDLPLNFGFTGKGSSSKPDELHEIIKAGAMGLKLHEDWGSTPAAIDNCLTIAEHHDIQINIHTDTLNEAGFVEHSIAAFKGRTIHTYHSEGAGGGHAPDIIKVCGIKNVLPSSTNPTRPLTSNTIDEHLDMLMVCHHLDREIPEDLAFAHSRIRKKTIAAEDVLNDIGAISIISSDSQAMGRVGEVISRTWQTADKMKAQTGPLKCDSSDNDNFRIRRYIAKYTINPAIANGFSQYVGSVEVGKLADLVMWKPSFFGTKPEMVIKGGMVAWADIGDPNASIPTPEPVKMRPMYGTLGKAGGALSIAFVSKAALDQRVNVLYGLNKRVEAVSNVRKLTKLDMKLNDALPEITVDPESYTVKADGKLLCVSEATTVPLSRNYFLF
RESULT TYPE: pIC50
Expect pIC50 as a plain number equal to -log10 of the molar concentration.

Task item: Request the reported pIC50 associated with NC(N)=S [Thiourea]
Reply: 5.01
